Target: Histamine H2 receptor (Homo sapiens, UniProt P25021); note: assay procedure not described here
Sequence (P25021 whole entry): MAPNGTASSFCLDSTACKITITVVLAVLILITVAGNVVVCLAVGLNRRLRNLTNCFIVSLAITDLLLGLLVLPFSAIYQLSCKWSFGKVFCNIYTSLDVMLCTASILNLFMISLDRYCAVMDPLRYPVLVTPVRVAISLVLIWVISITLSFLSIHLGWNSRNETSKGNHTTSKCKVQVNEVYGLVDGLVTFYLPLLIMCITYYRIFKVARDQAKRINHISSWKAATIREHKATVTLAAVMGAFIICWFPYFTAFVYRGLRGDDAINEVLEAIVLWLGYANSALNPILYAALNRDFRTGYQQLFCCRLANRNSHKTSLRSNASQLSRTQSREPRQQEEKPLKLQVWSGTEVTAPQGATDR
Format: functional, cell-based
Reported property: AC50

Molecule	Measured target	Reported property	Result
COc1cccc2c1C(=O)c1c(O)c3c(c(O)c1C2=O)C[C@@](O)(C(C)=O)C[C@@H]3O[C@H]1C[C@H](N)[C@H](O)[C@H](C)O1 [DAUNORUBICIN]	Histamine H2 receptor (Homo sapiens, UniProt P25021)	AC50	> 30 µM
CCn1cc(C(=O)O)c(=O)c2cc(F)c(N3CCNCC3)nc21 [ENOXACIN]	Histamine H2 receptor (Homo sapiens, UniProt P25021)	AC50	> 10 µM
CC(=O)OCC(=O)[C@@]1(O)CC[C@H]2[C@@H]3CCC4=CC(=O)CC[C@]4(C)C3=CC[C@@]21C [ANECORTAVE ACETATE]	Histamine H2 receptor (Homo sapiens, UniProt P25021)	AC50	> 10 µM
COC(=O)N[C@@H](C)CNc1nccc(-c2cn(C(C)C)nc2-c2cc(Cl)cc(NS(C)(=O)=O)c2F)n1 [ENCORAFENIB]	Histamine H2 receptor (Homo sapiens, UniProt P25021)	AC50	> 30 µM
CN1CCN(c2c(F)cc3c(=O)c(C(=O)O)cn4c3c2SCC4)CC1 [RUFLOXACIN]	Histamine H2 receptor (Homo sapiens, UniProt P25021)	AC50	> 30 µM
CNCCCC1c2ccccc2C=Cc2ccccc21 [PROTRIPTYLINE]	Histamine H2 receptor (Homo sapiens, UniProt P25021)	AC50	> 10 µM
CN1[C@@H]2CC[C@H]1C[C@@H](OC(=O)c1c[nH]c3ccccc13)C2 [TROPISETRON]	Histamine H2 receptor (Homo sapiens, UniProt P25021)	AC50	> 30 µM
CNCCC=C1c2ccccc2CCc2ccccc21 [NORTRIPTYLINE]	Histamine H2 receptor (Homo sapiens, UniProt P25021)	AC50	> 30 µM
O=C1CN=C(c2ccccc2)c2cc(Cl)ccc2N1 [NORDAZEPAM]	Histamine H2 receptor (Homo sapiens, UniProt P25021)	AC50	> 10 µM
CNCC[C@@H](Oc1ccccc1C)c1ccccc1 [ATOMOXETINE]	Histamine H2 receptor (Homo sapiens, UniProt P25021)	AC50	> 30 µM
CCN(CC)C(=O)C1CN2CCc3cc(OC)c(OC)cc3C2CC1OC(C)=O (stereo not given) [BENZQUINAMIDE]	Histamine H2 receptor (Homo sapiens, UniProt P25021)	AC50	> 30 µM
CCCN(CC)C(CC)C(=O)Nc1c(C)cccc1C (stereo not given) [ETIDOCAINE]	Histamine H2 receptor (Homo sapiens, UniProt P25021)	AC50	> 30 µM
CC(C)(C)NC[C@H](O)COc1nsnc1N1CCOCC1 [TIMOLOL]	Histamine H2 receptor (Homo sapiens, UniProt P25021)	AC50	> 30 µM
C[C@@H]1CCC[C@H](C)N1NC(=O)c1ccc(Cl)c(S(N)(=O)=O)c1 [CLOPAMIDE]	Histamine H2 receptor (Homo sapiens, UniProt P25021)	AC50	> 30 µM
CCC(C)(Oc1ccc(C2(c3ccc(OC(C)(CC)C(=O)O)cc3)CCCCC2)cc1)C(=O)O (stereo not given) [CLINOFIBRATE]	Histamine H2 receptor (Homo sapiens, UniProt P25021)	AC50	> 30 µM
C[n+]1ccccc1/C=N/O [PRALIDOXIME]	Histamine H2 receptor (Homo sapiens, UniProt P25021)	AC50	> 30 µM
OCCN1CCN(CC/C=C2/c3ccccc3Sc3ccc(Cl)cc32)CC1 [ZUCLOPENTHIXOL]	Histamine H2 receptor (Homo sapiens, UniProt P25021)	AC50	> 10 µM
O=C(Nc1c(Cl)cncc1Cl)c1ccc(OC(F)F)c(OCC2CC2)c1 [ROFLUMILAST]	Histamine H2 receptor (Homo sapiens, UniProt P25021)	AC50	> 30 µM
Nc1nc(O)c2ncn(COC(CO)CO)c2n1 [GANCICLOVIR]	Histamine H2 receptor (Homo sapiens, UniProt P25021)	AC50	> 30 µM
CC(=O)c1ccc2c(c1)N(CCCN1CCC(CCO)CC1)c1ccccc1S2 [PIPERACETAZINE]	Histamine H2 receptor (Homo sapiens, UniProt P25021)	AC50	> 30 µM
CC1(C)C(/C=C/C=C/C=C/C=C2\N(CCCCS(=O)(=O)O)c3ccc4ccccc4c3C2(C)C)=[N+](CCCCS(=O)(=O)[O-])c2ccc3ccccc3c21 [INDOCYANINE GREEN ACID FORM]	Histamine H2 receptor (Homo sapiens, UniProt P25021)	AC50	24 µM
Cc1ccc(=O)n(-c2ccccc2)c1 [PIRFENIDONE]	Histamine H2 receptor (Homo sapiens, UniProt P25021)	AC50	> 30 µM
CN(c1nccc(=O)[nH]1)C1CCN(c2nc3ccccc3n2Cc2ccc(F)cc2)CC1 [MIZOLASTINE]	Histamine H2 receptor (Homo sapiens, UniProt P25021)	AC50	> 30 µM
Cc1cc2nc3c(=O)[nH]c(=O)nc-3n(C[C@H](O)[C@H](O)[C@H](O)COP(=O)(O)O)c2cc1C [RIBOFLAVIN 5'-PHOSPHATE]	Histamine H2 receptor (Homo sapiens, UniProt P25021)	AC50	> 30 µM
N#C[C@@H]1CCCN1C(=O)CNC12CC3CC(CC(O)(C3)C1)C2 [VILDAGLIPTIN]	Histamine H2 receptor (Homo sapiens, UniProt P25021)	AC50	> 30 µM
Nc1ccc(C(=O)O)c(O)c1 [AMINOSALICYLIC ACID]	Histamine H2 receptor (Homo sapiens, UniProt P25021)	AC50	> 30 µM
COc1cccc(N(C)C(=S)Oc2ccc3c(c2)CCCC3)n1 [LIRANAFTATE]	Histamine H2 receptor (Homo sapiens, UniProt P25021)	AC50	> 30 µM
Nc1nc(F)nc2c1ncn2[C@@H]1O[C@H](COP(=O)(O)O)[C@@H](O)[C@@H]1O [FLUDARABINE PHOSPHATE]	Histamine H2 receptor (Homo sapiens, UniProt P25021)	AC50	> 30 µM
O=C(O)c1ccccc1Nc1cccc(C(F)(F)F)c1 [FLUFENAMIC ACID]	Histamine H2 receptor (Homo sapiens, UniProt P25021)	AC50	> 10 µM
CC(C)CC(N(C)C)C1(c2ccc(Cl)cc2)CCC1 (stereo not given) [SIBUTRAMINE]	Histamine H2 receptor (Homo sapiens, UniProt P25021)	AC50	> 10 µM
